The values you see were collected from the supplement of paper PMC10290057.

system: HCT116; test: efficacy (fitted maximal change in viability relative to DMSO control); higher = less cytotoxic (negative = loss of viability); details: 48 h;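 further: Luminescence-based viability readout, five doses per compound, normalized against on-plate DMSO and empty-well controls, followed by dose-response curve fitting for every drug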
Counter-ions that a name gives are not always drawn.
quantity: efficacy (%)
Output spec: scalar in %, unitless text.

Guide cases for efficacy, answers given:
- compound: "O=C1N\\N=C(\\C[C@@H]2CCN(C2)C(=O)C3CC3)N1C4=CC=C(C=C4)C5=CC=C6OC=CC6=C5"
  efficacy (%): -40.3
- compound: "O=C(O)Cn1nnc(-c2cc(N3CCC(Oc4cc(F)ccc4Br)CC3)no2)n1"
  efficacy (%): -19.9
- compound: "COC\\1=C(/OC)C(=O)\\C(=C(C)/C1=O)CCCCCCCCCCO"
  efficacy (%): -54.9

*Q* Hello, please tell me recorded efficacy for this one: NCC/1=C/NC(=S)N1[C@H]2CCC3=C(F)C=C(F)C=C3C2 [Nepicastat hydrochloride]
*A* -46.6
